The following binders are shown together with reported pSTAT3 (MFI) in CD8 T cells at 0.001 µM values.
Target: T1, IL10Rα and IL2Rγ on human primary cells (CD8 T cells, CD4 T cells, monocytes) (human) (UniProt Q13651)
T1 sequence (looked up) 1: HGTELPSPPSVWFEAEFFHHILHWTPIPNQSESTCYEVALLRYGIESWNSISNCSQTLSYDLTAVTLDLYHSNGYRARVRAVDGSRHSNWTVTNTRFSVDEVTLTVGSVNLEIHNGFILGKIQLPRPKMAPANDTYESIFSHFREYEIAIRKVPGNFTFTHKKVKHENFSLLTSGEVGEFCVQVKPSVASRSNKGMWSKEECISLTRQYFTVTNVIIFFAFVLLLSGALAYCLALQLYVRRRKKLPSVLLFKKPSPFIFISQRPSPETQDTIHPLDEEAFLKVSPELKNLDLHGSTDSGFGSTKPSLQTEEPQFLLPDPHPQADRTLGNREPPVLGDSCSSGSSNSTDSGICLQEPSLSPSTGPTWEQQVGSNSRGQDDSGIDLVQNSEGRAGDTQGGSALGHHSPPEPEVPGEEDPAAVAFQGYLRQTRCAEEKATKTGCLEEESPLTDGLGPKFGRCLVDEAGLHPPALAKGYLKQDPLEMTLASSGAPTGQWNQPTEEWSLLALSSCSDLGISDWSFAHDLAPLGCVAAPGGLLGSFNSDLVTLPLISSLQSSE
T1 sequence (looked up) 2: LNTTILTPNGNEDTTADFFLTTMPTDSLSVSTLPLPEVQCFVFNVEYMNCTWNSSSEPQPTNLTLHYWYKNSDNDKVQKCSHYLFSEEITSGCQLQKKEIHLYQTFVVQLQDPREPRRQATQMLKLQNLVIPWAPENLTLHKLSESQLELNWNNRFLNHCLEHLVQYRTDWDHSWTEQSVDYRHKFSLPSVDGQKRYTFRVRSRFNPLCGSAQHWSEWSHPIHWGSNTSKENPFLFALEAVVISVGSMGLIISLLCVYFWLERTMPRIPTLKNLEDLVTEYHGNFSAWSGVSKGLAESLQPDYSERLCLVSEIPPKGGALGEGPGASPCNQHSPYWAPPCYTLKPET
Experiment: cell-based or functional assay
I only need the number, in MFI, no unit after it.

Some solved entries appear below for comparison.
>>> result_value("hIL10Ra_VHH14-hIL2Rg_VHH19, linker GS, tag his (bispecific antibody, not shown: small tags and cut ends) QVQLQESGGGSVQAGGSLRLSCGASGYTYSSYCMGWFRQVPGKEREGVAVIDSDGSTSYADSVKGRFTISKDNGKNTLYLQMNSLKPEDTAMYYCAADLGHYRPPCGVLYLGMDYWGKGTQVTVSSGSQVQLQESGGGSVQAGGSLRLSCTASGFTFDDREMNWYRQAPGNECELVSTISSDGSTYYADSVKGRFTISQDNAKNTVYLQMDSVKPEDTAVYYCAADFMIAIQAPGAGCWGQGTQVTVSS")
8110
>>> result_value("hIL10Ra_VHH14-hIL2Rg_VHH19, linker GGGS, tag Fc (Fc fusion, not shown: a dimerising Fc or GST) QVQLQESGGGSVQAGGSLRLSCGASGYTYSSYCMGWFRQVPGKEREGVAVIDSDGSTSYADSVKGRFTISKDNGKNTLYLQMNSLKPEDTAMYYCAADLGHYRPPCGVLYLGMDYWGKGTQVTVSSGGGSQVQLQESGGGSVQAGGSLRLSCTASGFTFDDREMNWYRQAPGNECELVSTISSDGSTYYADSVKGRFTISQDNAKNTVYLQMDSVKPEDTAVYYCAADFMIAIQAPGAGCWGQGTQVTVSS")
7890

Provide measured pSTAT3 (MFI) in CD8 T cells at 0.001 µM value, entry: hIL10Ra_VHH14-hIL2Rg_VHH19, no linker, tag his (bispecific antibody, not shown: small tags and cut ends) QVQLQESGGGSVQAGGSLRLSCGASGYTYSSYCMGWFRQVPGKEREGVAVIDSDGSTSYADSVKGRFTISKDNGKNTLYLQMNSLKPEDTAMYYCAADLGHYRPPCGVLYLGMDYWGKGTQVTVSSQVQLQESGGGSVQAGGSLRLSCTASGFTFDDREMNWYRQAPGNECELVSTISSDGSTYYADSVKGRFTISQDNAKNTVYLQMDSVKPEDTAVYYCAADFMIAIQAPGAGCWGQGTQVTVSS 7740
